# target.or.system: full length cynomolgus monkey DLL4 (cynomolgus monkey)
# experimental.details: FMAT, hybridoma supernatant, 293T cells with cynomolgus DLL4
Give FL1 for every item shown.

Record summary for 1D4 (antibody, IgG4, V domains shown) VH: QLQLQESGPGLVKPSETLSLTCTVSGGSISSSSYYWGWIRQPPGKGLEWIGSFYYSRSTYYNPSLKSRVTISVDTSKNQFSLKLSSVTAADTAVHYCARGSIAVPDAFDIWGQGTMVTVSS VL: SYELTQPPSVSVSPGQTASITCSGDKLGDKFACWYQQKPGHSPVLVVYQDNKRPSGIPERFSGSNSGNSATLTISGTQAMDEADYYCQAWDSNTAVFGGGTKLTVL : reported FL1 = 11700

Record summary for 3A7 (antibody, IgG4, V domains shown) VH: EVQVVESGGGLVQPGGSLRLSCEASGFTFSNYWMIWVRQAPGKGLEWVASIKEDGSEKYYVDSVKGRFTISRDNAKSSLYLQMNSLRAEDTAVYYCVRDWELRGHYYYHGMDVWGQGTTVTVSS VL: DIQMTQSPSSLSASVGDRVTITCRASLDIRNDLGWFLQKPGKAPKRLIYAASSLQSGVPSRFSGSGSGTEFTLTINSLQPEDFATYYCLQHRNYPFTFGPGTKVDFK : reported FL1 = 9960

Record summary for 4B4 (antibody, IgG4, V domains shown) VH: QVLLIQSGAEVKKPGASVQVSCKASGYTFTNYGVIWVRQAPGQGLEYMGWISAYNGNTNYAQKLQDRVTMTSDTSTTTAYMELRSLRSDDTAVYYCARELGSSFDYWGQGTLVTVSS VL: SYELTQPPSVSVSPGQTARITCSGDALPKKYAYWYQQKSGQAPVLVIYEDIKRPSGIPERFSGSSSGTMATLTISGAQVEDEADYYCFSTDNSGDHSVFGGGTKLTVL : reported FL1 = 12300

Record summary for 9G8 (antibody, IgG4, V domains shown) VH: QLQLQESGPGLVKPSETLSLSCTVSGGSISSSSSYWGLIRQPPGKGLEWIGSIYYSGSTYYSPSLKSRVSISVDTSKNQFSLKLSSVTAADTAVYFCARQGYGGHPDVFDIWGQGTMVTVSS VL: SSELTQSPSVSVSPGQTARITCSGDKLGDVYVCWYQQKTGQSPVLVIYEDTKRPSGIPERFSGSNSGNTATLTISGTQVMDEADYYCQAWDSTTAVIFGGGTKLTVL : reported FL1 = 11700

Record summary for 2H10 (antibody, IgG4, V domains shown) VH: QVQLVESGGGVVQPGRSLRLSCAASGFTFSRHGMHWVRQAPGKGLEWVAVVWFDGSNIYYADSVKGRFTISRDNSKNTLYLQMNSLRAEDTAMYYCARDSRIAAADYWGQGTLVTVSS VL: SYELTQPPSVSVSPGQTVSITCSGDKLGDKYVCWYQQKPGQSPVLVIYQESKRPSGIPERFSGSSSGNTATLTISGTQAMDEADYYCQTWDSSLVVFGGGTKLTVL : reported FL1 = 13100
